For each entry below, report its ED50 value.
Tested on: sciatic-gastrocnemious preparation
measurementNotes: Neuromuscular blocking activity in vivo, sciatic-gastrocnemious preparation
Set-up: species or system male Sprague-Dawley rats
conditionsUsed: iv; rat, i.v., anaesthetized (urethane); read-out: ED50 (effective dose causing the 50% reduction of muscular contraction)
Answers are plain numbers, in µg/kg.

| molecule | targetUnderTest | readoutValue |
| --- | --- | --- |
| Cc1c(-c2ccccc2)n(CCCCCCn2c(-c3ccccc3)c(C)[n+]3ccccc23)c2cccc[n+]12 | sciatic-gastrocnemious preparation | 1.3 |
| c1ccc(-c2c[n+]3ccccc3n2CCn2c(-c3ccccc3)c[n+]3ccccc23)cc1 | sciatic-gastrocnemious preparation | 4 |
| Cc1c(-c2ccccc2)n(/N=N/n2c(-c3ccccc3)c(C)[n+]3ccccc23)c2cccc[n+]12 [Fazadinium bromide, reference compound] | sciatic-gastrocnemious preparation | 1 |

**Q:** Record request: ED50 value, item Cc1c(-c2ccccc2)n(CCCCn2c(-c3ccccc3)c(C)[n+]3ccccc23)c2cccc[n+]12
**A:** 5
